Exercise: for every item that follows, state its recorded pIC50.
# target: CDK6/cyclinD3 (Homo sapiens, UniProt Q00534)
# Sequence (Q00534 whole entry): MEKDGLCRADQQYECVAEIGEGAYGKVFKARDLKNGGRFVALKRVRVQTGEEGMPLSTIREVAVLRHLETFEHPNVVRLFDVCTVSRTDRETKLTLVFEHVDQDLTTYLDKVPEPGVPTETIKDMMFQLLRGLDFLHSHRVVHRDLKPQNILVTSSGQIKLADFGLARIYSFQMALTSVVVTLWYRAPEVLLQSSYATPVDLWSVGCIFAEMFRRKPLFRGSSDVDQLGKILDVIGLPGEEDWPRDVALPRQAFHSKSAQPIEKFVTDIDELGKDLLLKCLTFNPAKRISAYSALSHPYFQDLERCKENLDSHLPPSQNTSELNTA
# Sequence (P30281 whole entry partner): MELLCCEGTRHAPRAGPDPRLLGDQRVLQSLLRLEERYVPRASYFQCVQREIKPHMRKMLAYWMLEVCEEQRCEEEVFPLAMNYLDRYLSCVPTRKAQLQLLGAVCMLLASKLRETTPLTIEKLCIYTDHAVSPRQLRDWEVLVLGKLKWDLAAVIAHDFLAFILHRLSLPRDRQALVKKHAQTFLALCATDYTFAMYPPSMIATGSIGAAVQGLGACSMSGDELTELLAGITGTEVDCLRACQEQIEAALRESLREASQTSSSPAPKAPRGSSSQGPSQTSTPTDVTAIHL
# assay: Cyclin-dependent kinase activity assay (continuous ATP coupling assay), CDK6/cyclinD3
# conditions used: CDK6/cyclinD3 25 nM, ATP 500 μM, Rb copeptide 500 μM, 15 min preincubation, pH 7.5, 1% DMSO
pIC50: −log10 of the molar value.

As a guide, the following entries are already answered.
[[record]]
compound = "CNS(=O)(=O)c1ccc(Nc2ncc(C(F)(F)F)c(-n3cc([C@@H]4CCC[C@H]4O)cn3)n2)cc1 (single isomer, unassigned) [Example 74]"
target = "CDK6/cyclinD3 (Homo sapiens, UniProt Q00534)"
value_observed = "≤ 7.00"

[[record]]
compound = "CNS(=O)(=O)c1ccc(Nc2ncc(C(F)(F)F)c(-n3ccc(C4CC4)n3)n2)cc1 [Example 56]"
target = "CDK6/cyclinD3 (Homo sapiens, UniProt Q00534)"
value_observed = "≤ 7.00"


I have 8 compounds here; please give me pIC50 for each one.
1. CNS(=O)(=O)c1ccc(Nc2ncc(C(F)F)c(-n3cc(CC(C)(C)O)cn3)n2)cc1 [Example 66]
2. CNS(=O)(=O)c1ccc(Nc2ncc(C(F)(F)F)c(-n3cc(-c4ccoc4)cn3)n2)cc1 [Example 86]
3. O=S(=O)(NCCOC1CC1)c1ccc(Nc2ncc(C(F)(F)F)c(-n3cccn3)n2)cc1 [Example 129]
4. O=S(=O)(NCC1(O)CC1)c1ccc(Nc2ncc(C(F)(F)F)c(-n3cccn3)n2)cc1 [Example 131]
5. NS(=O)(=O)c1ccc(Nc2ncc(C(F)(F)F)c(-n3cccn3)n2)cc1 [Example 18]
6. CNS(=O)(=O)c1ccc(Nc2ncc(C(F)(F)F)c(-n3cc(CCC(C)(C)O)cn3)n2)cc1 [Example 3]
7. CNS(=O)(=O)c1ccc(Nc2ncc(C#N)c(-n3cc(CC(C)(C)O)cn3)n2)cc1 [Example 64]
8. CS(=O)(=O)N1CCC(Nc2ncc(C(F)(F)F)c(-n3cccn3)n2)CC1 [Example 19]

a:
["7.00 to 8.00", "≤ 7.00", "≤ 7.00", "≤ 7.00", "≤ 7.00", "≤ 7.00", "7.00 to 8.00", "7.00 to 8.00"]

I would be grateful if you could provide pIC50 for each of the following entries.
1. CNS(=O)(=O)c1ccc(Nc2ncc(C(F)(F)F)c(-n3cc(C(C)(C)C(C)(C)O)cn3)n2)cc1 [Example 60]
2. CNS(=O)(=O)c1ccc(Nc2ncc(C(F)(F)F)c(-n3cc(C4CCN(S(C)(=O)=O)CC4)cn3)n2)cc1 [Example 81]
3. CNS(=O)(=O)c1ccc(Nc2ncc(C(F)(F)F)c(-n3ccc(CC(C)(C)O)n3)n2)cc1 [Example 4]
4. O=S1(=O)NCc2cc(Nc3ncc(C(F)(F)F)c(-n4cccn4)n3)ccc21 [Example 42]
5. CC(C)(O)Cc1cnn(-c2nc(N[C@@H]3CCOC[C@H]3O)ncc2C(F)(F)F)c1 (single isomer, unassigned) [Example 8]
6. CNS(=O)(=O)c1ccc(Nc2ncc(C(F)(F)F)c(-n3cc(C4CN(C(C)=O)C4)cn3)n2)cc1 [Example 99]
7. Cc1cc(S(=O)(=O)NCCO)ccc1Nc1ncc(C(F)(F)F)c(-n2cccn2)n1 [Example 126]
8. [2H]C([2H])([2H])NS(=O)(=O)c1ccc(Nc2ncc(C(F)(F)F)c(-n3cc(CCC(C)(C)O)cn3)n2)cc1 [Example 61]

a:
["≤ 7.00", "7.00 to 8.00", "≤ 7.00", "≤ 7.00", "7.00 to 8.00", "≤ 7.00", "≤ 7.00", "≤ 7.00"]

Count: 6. Required value per item: pIC50.
1. CNS(=O)(=O)c1ccc(Nc2nccc(-n3cc(CC(C)(C)O)cn3)n2)cc1 [Example 67]
2. CC(C)(O)CCc1cnn(-c2nc(NC3CCN(S(C)(=O)=O)CC3)ncc2C(F)(F)F)c1 [Example 109]
3. CNS(=O)(=O)c1ccc(Nc2ncc(C(F)(F)F)c(-n3cc(C4CN(S(C)(=O)=O)C4)cn3)n2)cc1 [Example 98]
4. O=S(=O)(NCCO)c1ccc(Nc2ncc(C(F)(F)F)c(-n3cccn3)n2)cc1 [Example 36]
5. CNS(=O)(=O)c1ccc(Nc2ncc(C(F)(F)F)c(-n3cc(C4CCOC4)cn3)n2)cc1 (single isomer, unassigned) [Example 90]
6. O=S(=O)(NCCO)c1ccc(Nc2ncc(C(F)(F)F)c(-n3cccn3)n2)cc1F [Example 123]

a:
["≤ 7.00", "7.00 to 8.00", "≤ 7.00", "≤ 7.00", "7.00 to 8.00", "≤ 7.00"]

Quick one: give me pIC50 for each item below, same order please.
1. CNS(=O)(=O)c1ccc(Nc2ncc(Cl)c(-n3cc(CC(C)(C)O)cn3)n2)cc1 [Example 65]
2. O=S(=O)(NCCO)c1ccc(Nc2ncc(C(F)(F)F)c(-n3cccn3)n2)nc1 [Example 137]

a:
1: 7.00 to 8.00; 2: ≤ 7.00

Hi, could you look up pIC50 for each item in my list?
1. Cc1cnc(Nc2ccc(S(=O)(=O)NCCO)cc2)nc1-n1cccn1 [Example 114]
2. CC(O)Cc1cnn(-c2nc(NC3CCN(S(C)(=O)=O)CC3)ncc2C(F)(F)F)c1 (single isomer, unassigned) [Example 108]
3. CC1(Nc2ncc(C(F)(F)F)c(-n3cccn3)n2)CCN(S(C)(=O)=O)CC1 [Example 29]

a:
1: ≤ 7.00; 2: 7.00 to 8.00; 3: ≤ 7.00
